# measurement.target: T1, Claudin 18.2 (CLDN18.2), expressed on CHOS-CLDN 18.2 / HEK293-CLDN 18.2 / HCC827-CLDN 18.2 cells (human, UniProt P56856-2 1-261)
# T1 construct: whole, on cells; The species is not repeated for the CHOS-CLDN 18.2 cells; also called claudin-18A2
# test.name: FACS, CHOS-CLDN18.2 cells, 0.005 µg/ml
readout.label: FACS reading
Give bare numbers.

| binder | FACS reading |
| --- | --- |
| QP199200 (antibody, human IgG1, V domains shown, Chimeric; also called 43C11; mouse-derived chimeric antibody QP199200) VH: DVQLVESGGGLVQPGGSRKLSCAASGFTFSSFGMHWVRQAPEKGLEWVAYISSGSNSIYYVDTVKGRFTISRDNPKNTLFLQMTSLKSEDTAMYYCARNAYYGNSFDYWGQGTTLTVSS VL: DIVMTQSPSSLTVTAGEKVTMSCKSSQSLLNSGNQKNYLTWYQQKPGQPPKLLIYWASTRESGVPDRFTGSGSGTVFTLTISSVQAEDLAVYFCQNNYYYPLTFGAGTKLELK | 2760 |
| QP14501446 (antibody, human IgG1, kappa, V domains shown, Humanized from QP199200) VH: EVQLVESGGGLVQPGGSLRLSCAASGFTFSSFGMHWVRQAPGKGLEWVAYISSGSNSIYYVDTVKGRFTISRDNAKNSLYLQMNSLRDEDTAVYYCARNAYYGNSFDYWGQGTLVTVSS VL: DIVMTQSPDSLAVSLGERATINCKSSQSLLNSGNQKNYLTWYQQKPGQPPKLLIYWASTRESGVPDRFSGSGSGTDFTLTISSLQAEDVAVYYCQNNYYYPLTFGGGTKVEIKR | 2330 |
| QP14501448 (antibody, human IgG1, kappa, V domains shown, Humanized from QP199200) VH: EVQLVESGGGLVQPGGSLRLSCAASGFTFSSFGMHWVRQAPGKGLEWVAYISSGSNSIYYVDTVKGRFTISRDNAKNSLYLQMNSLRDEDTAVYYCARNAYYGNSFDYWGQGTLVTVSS VL: DIVMTQSPDSLAVSLGERATISCKSSQSLLNSGNQKNYLTWYQQKPGQPPKLLIYWASTRESGVPDRFTGSGSGTVFTLTISSLQAEDVAVYFCQNNYYYPLTFGGGTKVEIKR | 2480 |

Now look at this entry.
I would be grateful if you could share the reported FACS reading for QP14491448 (antibody, human IgG1, kappa, V domains shown, Humanized from QP199200) VH: EVQLVESGGGLVQPGGSLRLSCAASGFTFSSFGMHWVRQAPGKGLEWVSYISSGSNSIYYVDTVKGRFTISRDNAKNSLYLQMNSLRDEDTAVYYCARNAYYGNSFDYWGQGTLVTVSS VL: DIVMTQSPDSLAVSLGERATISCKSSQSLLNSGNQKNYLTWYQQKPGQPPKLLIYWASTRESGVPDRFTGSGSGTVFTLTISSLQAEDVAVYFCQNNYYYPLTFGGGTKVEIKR .
2410
